assay_overview: Stability of the compounds in aqueous solution (percent residue by high pressure liquid chromatography)
Assay type: physicochemical
experimental_parameters: Time 24 (time unit not given); 0.5 (w/w) % in water, 40°±1° C.
Procedure: Each of the compounds of the present invention was dissolved in water to give a concentration of 0.5 (w/w) %. The aqueous solution was held at 40°±1° C. and samples were taken at given intervals. They were subjected to high pressure liquid chromatography and the percent residue was calculated for each sample by measuring the peak area ratio. […]
Where a name gives a salt, the structure may show the parent alone.
Can you tell me Percent residue in aqueous solution for the items I'm about to list?
State just the number; it will be interpreted in %.

QUERY: Item under review: N=C(N)NCc1cccc(CCC(=O)N[C@@H](CO)C(=O)NCCCCNCCCN)c1 [Compound 5, trihydrochloride] . Reported Percent residue in aqueous solution?
RESULT: 99.6

QUERY: Item under review: N=C(N)NCCCc1ccc(C(=O)N[C@@H](CO)C(=O)NCCCCNCCCN)cc1 [Compound 4, trihydrochloride] . Reported Percent residue in aqueous solution?
RESULT: 99.9

QUERY: Item under review: N=C(N)NCc1ccccc1CCCCC(=O)N[C@@H](CO)C(=O)NCCCCNCCCN [Compound 8, trihydrochloride] . Reported Percent residue in aqueous solution?
RESULT: 99.9

QUERY: Item under review: N=C(N)NCCCc1ccc(C(=O)NCC(=O)NCCCCNCCCN)cc1 [Compound 7, trihydrochloride] . Reported Percent residue in aqueous solution?
RESULT: 99.6

###

Can you tell me Percent residue in aqueous solution for the items I'm about to list?
assay_overview: Stability of the compounds in aqueous solution (percent residue by high pressure liquid chromatography)
Type: physicochemical
experimental_parameters: Time 12 (time unit not given); 0.5 (w/w) % in water, 40°±1° C.
Where a name gives a salt, the structure may show the parent alone.
State just the number; it will be interpreted in %.

QUERY: Item under review: N=C(N)NCCCc1ccc(C(=O)NCC(=O)NCCCCNCCCN)cc1 [Compound 7, trihydrochloride] . Reported Percent residue in aqueous solution?
RESULT: 99.6

QUERY: Item under review: N=C(N)NCc1ccc(CCC(=O)N[C@@H](CO)C(=O)NCCCCNCCCN)c(Cl)c1 [Compound 9, trihydrochloride] . Reported Percent residue in aqueous solution?
RESULT: 99.8

QUERY: Item under review: N=C(N)NCc1ccccc1CCCCC(=O)N[C@@H](CO)C(=O)NCCCCNCCCN [Compound 8, trihydrochloride] . Reported Percent residue in aqueous solution?
RESULT: 99.7

QUERY: Item under review: N=C(N)NCc1cccc(CCC(=O)N[C@@H](CO)C(=O)NCCCCNCCCN)c1 [Compound 5, trihydrochloride] . Reported Percent residue in aqueous solution?
RESULT: 99.9

QUERY: Item under review: N=C(N)Nc1ccc(CCCCC(=O)N[C@@H](CO)C(=O)NCCCCNCCCN)cc1 [Compound 6, trihydrochloride] . Reported Percent residue in aqueous solution?
RESULT: 99.5

QUERY: Item under review: N=C(N)NCCCc1ccc(C(=O)N[C@@H](CO)C(=O)NCCCCNCCCN)cc1 [Compound 4, trihydrochloride] . Reported Percent residue in aqueous solution?
RESULT: 99.6

QUERY: Item under review: N=C(N)Nc1ccc(CCCC(=O)NCC(=O)NCCCCNCCCN)cc1 [Compound 2, trihydrochloride] . Reported Percent residue in aqueous solution?
RESULT: 99.7

QUERY: Item under review: N=C(N)Nc1ccc(CCCC(=O)N[C@@H](CO)C(=O)NCCCCNCCCN)cc1 [Compound 1, trihydrochloride] . Reported Percent residue in aqueous solution?
RESULT: 99.8

QUERY: Item under review: N=C(N)NCc1ccc(CCC(=O)N[C@@H](CO)C(=O)NCCCCNCCCN)cc1 [Compound 3, trihydrochloride] . Reported Percent residue in aqueous solution?
RESULT: 99.6

The values you see were collected from patent US4556735A.
